# settings: in n-propanol, 313.15 K
readout_label: solubility (mole fraction)

{"smiles": "O=C(O)c1ccc(-c2ccccc2)cc1", "endpoint_result": 0.00817}

###

# settings: in isopropanol, 313.15 K
readout_label: solubility (mole fraction)

{"smiles": "O=C(O)c1ccc(-c2ccccc2)cc1", "readout_label": "solubility (mole fraction)", "endpoint_result": 0.00779}

###

# settings: in methanol, 303.15 K

{"smiles": "O=C(O)c1ccc(-c2ccccc2)cc1", "solubility (mole fraction)": 0.0036}

###

# settings: in methyl acetate, 303.15 K

{"smiles": "O=C(O)c1ccc(-c2ccccc2)cc1", "solubility (mole fraction)": 0.00704}

###

# settings: in benzene, 308.15 K

{"smiles": "O=C(O)c1ccc(-c2ccccc2)cc1", "solubility (mole fraction)": 0.00179}

###

# settings: in methanol, 318.15 K
readout_label: solubility (mole fraction)

{"smiles": "O=C(O)c1ccc(-c2ccccc2)cc1", "endpoint_result": 0.00584}

###

# settings: in isopropanol, 318.15 K
readout_label: solubility (mole fraction)

{"smiles": "O=C(O)c1ccc(-c2ccccc2)cc1", "readout_label": "solubility (mole fraction)", "endpoint_result": 0.00952}

###

# settings: in isobutanol, 328.15 K
readout_label: solubility (mole fraction)

{"smiles": "O=C(O)c1ccc(-c2ccccc2)cc1", "endpoint_result": 0.0111}

###

# settings: in benzene, 303.15 K

{"smiles": "O=C(O)c1ccc(-c2ccccc2)cc1", "solubility (mole fraction)": 0.00149}

###

# settings: in methanol, 313.15 K

{"smiles": "O=C(O)c1ccc(-c2ccccc2)cc1", "solubility (mole fraction)": 0.00484}

###

# settings: in methanol, 323.15 K

{"smiles": "O=C(O)c1ccc(-c2ccccc2)cc1", "solubility (mole fraction)": 0.0066}

###

# settings: in n-butanol, 308.15 K

{"smiles": "O=C(O)c1ccc(-c2ccccc2)cc1", "solubility (mole fraction)": 0.00775}

###

# settings: in ethanol, 293.15 K

{"smiles": "O=C(O)c1ccc(-c2ccccc2)cc1", "solubility (mole fraction)": 0.00366}

###

# settings: in methanol, 328.15 K

{"smiles": "O=C(O)c1ccc(-c2ccccc2)cc1", "solubility (mole fraction)": 0.0076}

###

# settings: in n-propanol, 318.15 K
readout_label: solubility (mole fraction)

{"smiles": "O=C(O)c1ccc(-c2ccccc2)cc1", "endpoint_result": 0.00954}

###

# settings: in n-butanol, 323.15 K

{"smiles": "O=C(O)c1ccc(-c2ccccc2)cc1", "solubility (mole fraction)": 0.012}

###

# settings: in isopropanol, 298.15 K

{"smiles": "O=C(O)c1ccc(-c2ccccc2)cc1", "solubility (mole fraction)": 0.00464}

###

# settings: in methyl acetate, 313.15 K

{"smiles": "O=C(O)c1ccc(-c2ccccc2)cc1", "solubility (mole fraction)": 0.00942}

###

# settings: in n-propanol, 308.15 K

{"smiles": "O=C(O)c1ccc(-c2ccccc2)cc1", "solubility (mole fraction)": 0.00685}

###

# settings: in ethanol, 313.15 K

{"smiles": "O=C(O)c1ccc(-c2ccccc2)cc1", "solubility (mole fraction)": 0.0072}

###

# settings: in n-propanol, 293.15 K

{"smiles": "O=C(O)c1ccc(-c2ccccc2)cc1", "solubility (mole fraction)": 0.00426}

###

# settings: in ethanol, 328.15 K
readout_label: solubility (mole fraction)

{"smiles": "O=C(O)c1ccc(-c2ccccc2)cc1", "readout_label": "solubility (mole fraction)", "endpoint_result": 0.0109}

###

# settings: in ethyl acetate, 313.15 K

{"smiles": "O=C(O)c1ccc(-c2ccccc2)cc1", "solubility (mole fraction)": 0.0124}

###

# settings: in isobutanol, 308.15 K

{"smiles": "O=C(O)c1ccc(-c2ccccc2)cc1", "solubility (mole fraction)": 0.0051}

###

# settings: in methanol, 298.15 K

{"smiles": "O=C(O)c1ccc(-c2ccccc2)cc1", "solubility (mole fraction)": 0.00304}

###

# settings: in benzene, 313.15 K

{"smiles": "O=C(O)c1ccc(-c2ccccc2)cc1", "solubility (mole fraction)": 0.00214}

###

# settings: in ethyl acetate, 303.15 K
readout_label: solubility (mole fraction)

{"smiles": "O=C(O)c1ccc(-c2ccccc2)cc1", "readout_label": "solubility (mole fraction)", "endpoint_result": 0.00923}

###

# settings: in ethyl acetate, 308.15 K
readout_label: solubility (mole fraction)

{"smiles": "O=C(O)c1ccc(-c2ccccc2)cc1", "endpoint_result": 0.0108}

###

# settings: in n-butanol, 293.15 K

{"smiles": "O=C(O)c1ccc(-c2ccccc2)cc1", "solubility (mole fraction)": 0.00471}

###

# settings: in ethanol, 303.15 K
readout_label: solubility (mole fraction)

{"smiles": "O=C(O)c1ccc(-c2ccccc2)cc1", "readout_label": "solubility (mole fraction)", "endpoint_result": 0.00512}

###

# settings: in isobutanol, 323.15 K
readout_label: solubility (mole fraction)

{"smiles": "O=C(O)c1ccc(-c2ccccc2)cc1", "endpoint_result": 0.0093}

###

# settings: in n-propanol, 303.15 K

{"smiles": "O=C(O)c1ccc(-c2ccccc2)cc1", "solubility (mole fraction)": 0.00598}

###

# settings: in benzene, 298.15 K

{"smiles": "O=C(O)c1ccc(-c2ccccc2)cc1", "solubility (mole fraction)": 0.00123}

###

# settings: in isobutanol, 313.15 K
readout_label: solubility (mole fraction)

{"smiles": "O=C(O)c1ccc(-c2ccccc2)cc1", "endpoint_result": 0.0063}

###

# settings: in ethanol, 318.15 K

{"smiles": "O=C(O)c1ccc(-c2ccccc2)cc1", "solubility (mole fraction)": 0.00831}

###

# settings: in benzene, 318.15 K

{"smiles": "O=C(O)c1ccc(-c2ccccc2)cc1", "solubility (mole fraction)": 0.00254}

###

# settings: in methyl acetate, 298.15 K

{"smiles": "O=C(O)c1ccc(-c2ccccc2)cc1", "solubility (mole fraction)": 0.00593}

###

# settings: in ethanol, 323.15 K
readout_label: solubility (mole fraction)

{"smiles": "O=C(O)c1ccc(-c2ccccc2)cc1", "readout_label": "solubility (mole fraction)", "endpoint_result": 0.00962}

###

# settings: in n-propanol, 323.15 K
readout_label: solubility (mole fraction)

{"smiles": "O=C(O)c1ccc(-c2ccccc2)cc1", "endpoint_result": 0.0112}

###

# settings: in n-propanol, 298.15 K

{"smiles": "O=C(O)c1ccc(-c2ccccc2)cc1", "solubility (mole fraction)": 0.00509}

###

# settings: in methyl acetate, 318.15 K
readout_label: solubility (mole fraction)

{"smiles": "O=C(O)c1ccc(-c2ccccc2)cc1", "endpoint_result": 0.0108}

###

# settings: in n-butanol, 303.15 K

{"smiles": "O=C(O)c1ccc(-c2ccccc2)cc1", "solubility (mole fraction)": 0.00658}

###

# settings: in methyl acetate, 293.15 K
readout_label: solubility (mole fraction)

{"smiles": "O=C(O)c1ccc(-c2ccccc2)cc1", "endpoint_result": 0.0051}

###

# settings: in n-butanol, 318.15 K
readout_label: solubility (mole fraction)

{"smiles": "O=C(O)c1ccc(-c2ccccc2)cc1", "endpoint_result": 0.0105}

###

# settings: in methyl acetate, 323.15 K

{"smiles": "O=C(O)c1ccc(-c2ccccc2)cc1", "solubility (mole fraction)": 0.0126}

###

# settings: in isopropanol, 303.15 K
readout_label: solubility (mole fraction)

{"smiles": "O=C(O)c1ccc(-c2ccccc2)cc1", "readout_label": "solubility (mole fraction)", "endpoint_result": 0.00563}

###

# settings: in ethyl acetate, 323.15 K
readout_label: solubility (mole fraction)

{"smiles": "O=C(O)c1ccc(-c2ccccc2)cc1", "endpoint_result": 0.0165}

###

# settings: in n-butanol, 298.15 K

{"smiles": "O=C(O)c1ccc(-c2ccccc2)cc1", "solubility (mole fraction)": 0.00559}

###

# settings: in methanol, 308.15 K
readout_label: solubility (mole fraction)

{"smiles": "O=C(O)c1ccc(-c2ccccc2)cc1", "endpoint_result": 0.00424}

###

# settings: in benzene, 328.15 K
readout_label: solubility (mole fraction)

{"smiles": "O=C(O)c1ccc(-c2ccccc2)cc1", "readout_label": "solubility (mole fraction)", "endpoint_result": 0.00353}

###

# settings: in isopropanol, 323.15 K

{"smiles": "O=C(O)c1ccc(-c2ccccc2)cc1", "solubility (mole fraction)": 0.0115}

###

# settings: in isobutanol, 298.15 K

{"smiles": "O=C(O)c1ccc(-c2ccccc2)cc1", "solubility (mole fraction)": 0.00349}

# credit: BigSolDB 2.1
